Reference source for all entries: the Deep4Chem optical property database

# assay-details: solvent given as SMILES
# measurement-setup: in C1COCCO1

molecule	absorption maximum (nm)
Oc1ccc(/N=C/c2ccccc2Oc2ccccc2)cc1	341
CCCCNC(=O)c1nc2c(N(C)C)nc(N(C)C)nc2n1Cc1ccccc1	332
COc1ccc(C2=N/C(=C\c3ccccc3)C(=O)N2)cc1OC	390
CCC[n+]1ccc(/C=C/c2ccc(N(C)C)cc2)cc1	463
O=C1/C(=C2\Sc3ccc(S(=O)(=O)Cl)cc3C2=O)Sc2ccc(S(=O)(=O)Cl)cc21	526
CCOC(=O)C1=C(C)NC2=C(C(=O)c3ccccc32)C1c1ccc(N(C)C)cc1 (stereo not drawn)	373
CN(C)c1ccc(/C=C/C=C/c2ccncc2)cc1	392
CCN(CC)c1ccc2nc3c4ccccc4c(=O)cc-3oc2c1	519
CCC12C(=C3C(=C4c5ccc(-c6ccc(C)s6)cc5S(=O)(=O)C41CC)C(F)(F)C(F)(F)C3(F)F)c1ccc(-c3ccc(C)s3)cc1S2(=O)=O (stereo not drawn)	506
COc1ccc(C#Cc2ccc(C#Cc3ccc(P(=O)(c4ccc(C#Cc5ccc(C#Cc6ccc(OC)cc6)cc5)cc4)c4ccc(C#Cc5ccc(C#Cc6ccc(OC)cc6)cc5)cc4)cc3)cc2)cc1	336
Clc1nc(Cl)nc(Nc2ccc3cc4ccccc4cc3c2)n1	396
N#Cc1ccc(/C=C2\N=C(c3ccccc3)NC2=O)cc1	393
CN(C)c1cc(C#N)c(N(C)C)c(C#N)c1	391.08

###

In this section, each of the compounds is paired with its reported absorption maximum.
# assay-details: solvent given as SMILES
# measurement-setup: in ClC(Cl)(Cl)Cl
parameter-measured: absorption maximum (nm)

> print(dat)
                                   compound  unit.abbreviation  data.value
1  CCCCCCCCCCCCCCCC[n+]1ccc(/C=C(\C)c2ccccc2)cc1                 nm       399.5
2  COc1ccc(/C=C/C2=[O+][B-](F)(F)OC(/C=C/c3ccc(OC)cc3)=C2c2ccccc2)cc1                 nm         493
3  COc1ccc(C2=CC(c3ccc(OC)cc3)=[O+][B-](C(C)=O)(C(C)=O)O2)cc1                 nm         405
4  CCC12C(=C3C(=C4c5ccc(-c6ccc(C)s6)cc5S(=O)(=O)C41CC)C(F)(F)C(F)(F)C3(F)F)c1ccc(-c3ccc(C)s3)cc1S2(=O)=O (stereo not drawn)                 nm      497.35
5  CCCCCCCCCCCCCCCC[n+]1ccc(/C=C/c2ccccc2O)cc1                 nm       548.4
6  CCCCCCC(CCCCCC)n1c(=O)c2c3ccc4cccc5c6cccc7ccc(c2c1=O)c(c76)c3c45                 nm         338
7  CCCCCCCCOc1ccc2c3cccc4c(OCCCCCCCC)ccc(c5cccc1c52)c43                 nm         462
8  CN(C)/C=N\c1ccc2c3c(cccc13)C(=O)c1ccccc1-2                 nm         448

###

# assay-details: solvent given as SMILES
# measurement-setup: in C1CCOC1
With a cut-off of 400 nm, any absorption maximum strictly below it is called yes (1); any absorption maximum meeting it or above is called no (0).

compound	category
Fc1c(F)c(F)c([B-]2(c3c(F)c(F)c(F)c(F)c3F)Oc3c(ccc4c5c(ccc34)C=[N+](c3ccccc3)[B-](c3c(F)c(F)c(F)c(F)c3F)(c3c(F)c(F)c(F)c(F)c3F)O5)C=[N+]2c2ccccc2)c(F)c1F	no (0)
N#Cc1cc(-n2c3ccccc3c3cc(Br)ccc32)c(-n2c3ccccc3c3cc(Br)ccc32)cc1C#N	yes (1)
N#Cc1c(N2CCCCC2)cc(-c2ccc(-c3ccccc3)s2)c2c1CCc1ccccc1-2	yes (1)
CCC1(CC)c2ccccc2-c2c1c1c(c3c2C(CC)(CC)c2cc(N(c4ccccc4)c4ccccc4)ccc2-3)C(CC)(CC)c2ccccc2-1	yes (1)
O=[N+]([O-])c1ccc(-c2nc3c(c4c2-c2ccccc2CC4)-c2ccccc2CC3)cc1	yes (1)
c1cc2ccc1-c1ccc(cc1)-c1ccc([se]1)-c1ccc(cc1)-c1ccc(cc1)-c1ccc([se]1)-c1ccc(cc1)-c1ccc(cc1)-c1ccc([se]1)-c1ccc(cc1)-c1ccc(cc1)-c1ccc-2[se]1	yes (1)
O=S1(=O)C(c2cccs2)=C(c2cccs2)c2ccccc21	yes (1)
O=P1(c2ccccc2)C(c2ccc(C(F)(F)F)cc2)=Cc2ccccc21 (stereo not given)	yes (1)
CCN(CC)c1ccc(-c2nc3c(nc2-c2ccc([B-](F)(c4c(C)cc(C)cc4C)c4c(C)cc(C)cc4C)cc2)c2ccccc2n3C)cc1	no (0)
O=C1c2cccc3cc4ccccc4c(c23)C(=O)N1Cc1ccccn1	no (0)
O=S(=O)(c1cccc(-n2c3ccccc3c3ccccc32)c1)c1cccc(-n2c3ccccc3c3ccccc32)c1	yes (1)
CN(C)c1ccc2cc(C(/C=C/c3cn(C)c4ccccc34)=C(C#N)C#N)c(=O)oc2c1	no (0)
CCCCCCCCCCCCOc1cc(C(=O)Nc2ccc(-c3ccc4c(c3)C(=O)c3cc(-c5ccc(NC(=O)c6cc(OCCCCCCCCCCCC)c(OCCCCCCCCCCCC)c(OCCCCCCCCCCCC)c6)cc5)ccc3-4)cc2)cc(OCCCCCCCCCCCC)c1OCCCCCCCCCCCC	no (0)
O=S1(=O)C(c2ccsc2)=C(c2ccsc2)c2ccccc21	yes (1)
CCOC(=O)COc1ccc(/C=C/c2c(CC)c(C)c3n2[B-](F)(F)[N+]2=C(c4[nH]c(C)c(CC)c4C)c4ccccc4C2=C3C)cc1	no (0)
C(=C1c2ccccc2-c2ccccc21)c1ccc(C=C2c3ccccc3-c3ccccc32)cc1	yes (1)
CCCCCCCCOc1ccc2c3cccc4c(OCCCCCCCC)ccc(c5cccc1c52)c43	no (0)

###

Catalogue of absorption maximum values
# assay-details: solvent given as SMILES
# measurement-setup: in Cc1ccccc1
parameter-measured: absorption maximum (nm)

smiles-entry	parameter-measured	data-value
Cc1ccc(-n2c(-c3ccccc3N)nc3c4ccccc4c4ccccc4c32)cc1	absorption maximum	311
CC1(C)c2ccccc2N(c2ccc(-c3nc(-c4ccccc4)cc(-c4ccccc4)n3)cc2)c2ccccc21	absorption maximum	366.6
CC1(C)c2ccccc2N(c2ccc(C(=O)/C=C(\O)c3ccc(N4c5ccccc5C(C)(C)c5ccccc54)cc3)cc2)c2ccccc21	absorption maximum	406
CC1=NN(c2ccccc2)C(=O)/C1=C\c1cn(-c2ccccc2)nc1-c1ccc([N+](=O)[O-])cc1	absorption maximum	364
CC(C)[Si](C#Cc1c2ccccc2c(C#Cc2c3ccccc3c(C#Cc3c4ccccc4c(C#Cc4c5ccccc5c(C#Cc5c6ccccc6c(C#C[Si](C(C)C)(C(C)C)C(C)C)c6ccccc56)c5ccccc45)c4ccccc34)c3ccccc23)c2ccccc12)(C(C)C)C(C)C	absorption maximum	585
COc1ccc(-c2c3ccc([nH]3)c3nc(c(-c4ccc([N+](=O)[O-])cc4)c4ccc([nH]4)c4ccc([nH]4)c(-c4ccc(OC)cc4)c4ccc2o4)C=C3)cc1	absorption maximum	448
CC1(C)c2ccccc2N(c2ccc3c(c2)Oc2ccccc2S3(=O)=O)c2ccccc21	absorption maximum	356
CC1(C)c2ccccc2N(c2ccc(-c3cc(C#N)c(C#N)cc3-c3ccc(N4c5ccccc5C(C)(C)c5ccccc54)cc3)cc2)c2ccccc21	absorption maximum	384
CCCCCCC(CCCCCC)N1C(=O)c2cccc3c(-c4ccc(OC)c5ccccc45)ccc(c23)C1=O	absorption maximum	324
CCCCCCc1cc2/c(=C(\C#N)C(=O)OC)s/c(=c3/s/c(=C(/C#N)C(=O)OC)c4cc(CCCCCC)sc34)c2s1	absorption maximum	580
COc1ccc2n1[B-](F)(F)[N+]1=C(c3ccccc3)C=CC1=C2c1ccc(C)cc1	absorption maximum	534
CCCCCCCCCCCCC1(CCCCCCCCCCCC)c2cc(-c3ccc(C=C4C(=O)c5ccccc5C4=O)cc3)ccc2-c2ccc(-c3ccc(C=C4C(=O)c5ccccc5C4=O)cc3)cc21	absorption maximum	429

###

# assay-details: solvent given as SMILES
# measurement-setup: in CC#N
Output Yes for records whose absorption maximum is lower than 400 nm, No for records at or above 400 nm.

> print(dat)
                               smiles.entry  category
1  Cc1ccc(-c2ccc(/C=C/c3ccc([N+](=O)[O-])cc3)cn2)nc1       Yes
2  COc1ccc(-c2cc3c(s2)c(C(C)=O)cc(=O)n3Cc2ccccc2)cc1        No
3                   C=Cc1cc2ccc(OC)cc2oc1=O       Yes
4  COC(=O)c1ccc2c3ccc(C(=O)OC)c4c(C(=O)OC)ccc(c5ccc(C(=O)OC)c1c25)c43        No
5   CCN(CC)c1ccc(/N=N/c2nc3ccc(OC)cc3s2)cc1        No
6  F[B-]1(F)n2c(ccc2N2CCOCC2)C(c2ccccc2)=C2C=CC(N3CCOCC3)=[N+]21        No
7  CCN(CC)c1ccc2cc3ccc(=[N+](CC)CC)cc-3oc2c1        No
8               Cc1cc(-c2ccccc2C)cc(C)[o+]1       Yes
9  CCCCCCc1ccc2c3c(ccc2c1)O[B-](F)(F)[N+](c1ccc([N+]2=Cc4c(ccc5cc(CCCCCC)ccc45)O[B-]2(F)F)cc1)=C3        No
